// data source = paper PMC3988174

biological target: atToc132 G-domain bait (Arabidopsis thaliana) (UniProt Q9SLF3); assay: two-hybrid; pairwise split-ubiquitin yeast two-hybrid of isolated NubG-preys with Toc159G, Toc132G or Toc132AG bait in NMY51; growth on SD-LWHA (3-AT) and quantitative β-Gal assay, activity relative to a reference bait set to 100%
Sequence (Q9SLF3 456-794): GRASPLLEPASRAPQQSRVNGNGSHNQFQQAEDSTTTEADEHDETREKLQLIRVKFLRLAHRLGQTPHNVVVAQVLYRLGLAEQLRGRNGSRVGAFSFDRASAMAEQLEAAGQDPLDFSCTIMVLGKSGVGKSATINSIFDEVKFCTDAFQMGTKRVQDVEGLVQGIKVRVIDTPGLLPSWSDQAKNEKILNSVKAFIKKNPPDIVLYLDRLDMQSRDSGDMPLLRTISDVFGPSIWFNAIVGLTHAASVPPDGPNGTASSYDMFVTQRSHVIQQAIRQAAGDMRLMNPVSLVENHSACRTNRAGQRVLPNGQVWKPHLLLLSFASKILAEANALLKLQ
readout name: % increase in strength of interaction (β-Gal) with 132G against 159G (%)

MPBQ/MSBQ methyl transferase (natural protein) MASLMLNGAITFPKGLGSPGSNLHARSIPRPTLLSVTRTSTPRLSVATRCSSSSVSSSRPSAQPRFIQHKKEAYWFYRFLSIVYDHVINPGHWTEDMRDDALEPADLSHPDMRVVDVGGGTGFTTLGIVKTVKAKNVTILDQSPHQLAKAKQKEPLKECKIVEGDAEDLPFPTDYADRYVSAGSIEYWPDPQRGIREAYRVLKIGGKACLIGPVYPTFWLSRFFSDVWMLFPKEEEYIEWFKNAGFKDVQLKRIGPKWYRGVRRHGLIMGCSVTGVKPASGDSPLQLGPKEEDVEKPVNNPFSFLGRFLLGTLAAAWFVLIPIYMWIKDQIVPKDQPI
30.7

a. Chloroplast chaperonin 10 (natural protein) MASTFVCSLPNPFFAFPVKATTPSTANHTLLGSRRGCLRIKAISTKWEPTKVVPQADRVLVRLEDLPIKSSGGVLLPKAAVKFERYLTGEIISVGSEVGQQVGPGKRVLFSDVSAYEVDLGTDARHCFCKESDLLALVE
b. CCR-like protein (natural protein) MQGALFIKPTILLPLPSSVSSPKLTFLLPHATKASRLSSLRSNNSSSSSSLTSDPNTVDYNSSILSVFPAEACEVISGYACSADIYPEVKLDTKPVSRPVASEPVDREYEEYNSPKTVFREEACDDLGGEFCEPDFQKDAN
Param pair: a , b . Output: the one whose % increase in strength of interaction (β-Gal) with 132G against 159G is numerically greater. Provide the label of your selected option as the answer.
b
